The measurements presented in this section are drawn from patent US20230140290A1.

experiment: Cytotoxicity assay (AlamarBlue)
reportedConditions: human, A549 cells
Listed next: entries and their corresponding CC50 at 48 h.
measureName: CC50 at 48 h

1) O=C(Nc1ccc(NCc2cnccc2Cl)cc1Cl)c1cc(Cl)ccc1O | 65.3 to 126 µM
2) O=C(Nc1ccc(NCc2cccc(Br)n2)cc1Cl)c1cc(Cl)ccc1O | 65.3 to 126 µM
3) O=C(Nc1ccc(NCc2cccnc2Cl)cc1Cl)c1cc(Cl)ccc1O | 65.3 to 126 µM
4) CC(C)(NC(=O)c1cc(Cl)ccc1O)c1ccc(F)cc1 | > 200 µM
5) O=C(Nc1ccc(NCc2ccncc2)cc1Cl)c1cc(Cl)ccc1O | 65.3 to 126 µM
6) C[C@@H](NC(=O)c1cc(Cl)ccc1O)c1ccc(F)cc1 | > 200 µM
